Where do these numbers come from? They come from PubChem BioAssay AID504834.

assay: Primary qHTS for delayed death inhibitors of the malarial parasite plastid, 96 hour incubation; settings: P. falciparum luciferase reporter growth; series mostly up to 28.7 µM
Screen size: about 320,000 compounds; about 22,000 (6.9%) were called active. About 27% were inconclusive and are not listed. Calls follow the shape of the dose curve; as a rule, active = well fitted inhibition curve with a large enough effect; inconclusive = small, poorly fitted or top-dose-only effect, or another doubt; inactive = no such curve, though single readings can be large or run the other way. Only a selection was taken, and actives are over-represented in it overall.
Tick one outcome: True (active), False (inactive)

[[record]]
compound = "CCOc1ccc(C(=O)NC2CCN(S(=O)(=O)CC)CC2)cc1"
category_label = "True"

[[record]]
compound = "O=C(Cn1c(-c2cscn2)nc2ccccc21)Nc1ccc(Cl)cc1"
category_label = "False"

[[record]]
compound = "CCOc1cc(CN2CCN(C(=O)CC(C)C)CC2)ccc1OC"
category_label = "False"


Inquiry: Outcome? `Cn1cc(C(=O)c2ccc(Cl)cc2Cl)cc1C(=O)NN`
Reply text: False

Inquiry: Outcome? CCCN1C(=O)C(Cc2nc3ccccc3c(=O)n2-c2ccccc2)c2cc(C)ccc21 (centres undefined)
Reply text: True

Inquiry: Outcome? Cc1cc([N+](=O)[O-])ccc1NC(=O)C1CCCO1 (centres undefined)
Reply text: False

Inquiry: Outcome? `COc1ccc(-n2c(-c3ccccc3)nc3ccccc3c2=O)cc1`
Reply text: False

Inquiry: Outcome? `Cc1ccc(C)c(OCCC(=O)OCC(=O)c2ccc3c(c2)NC(=O)CO3)c1`
Reply text: False

Inquiry: Outcome? C[C@]12CC[C@@H]3c4ccc(O)cc4C[C@@H](CCCCCCCCCS(=O)CCCC(F)(F)C(F)(F)F)C3[C@@H]1CC[C@@H]2O (some centres undefined)
Reply text: True

Inquiry: Outcome? `NS(=O)(=O)c1ccc(CCNC(=O)CN2C(=O)c3ccccc3S2(=O)=O)cc1`
Reply text: False

Inquiry: Outcome? `Cc1cccc(N2C(=O)c3ccc(C(=O)Nc4cccc(C(=O)O)c4)cc3C2=O)c1`
Reply text: True

Inquiry: Outcome? `COc1cc2c(cc1OC)CN(C(=O)c1ccc(S(=O)(=O)N3CCCCCC3)cc1)CC2`
Reply text: True

Inquiry: Outcome? `COc1ccc(S(=O)(=O)N2CCCCC2)cc1Br`
Reply text: False

Inquiry: Outcome? `CC(=O)Nc1ccc(-c2csc(NC(=O)Nc3ccccc3)n2)cc1`
Reply text: False

Inquiry: Outcome? O=C(C1CC(=O)N(C2CCCCC2)C1)N1CCN(c2ccccc2)CC1 (centres undefined)
Reply text: False

Inquiry: Outcome? `NC(=S)Nc1c(Cl)cccc1Cl`
Reply text: False

Inquiry: Outcome? `COC(=O)c1cccc(NC(=O)c2cccc(N3C(=O)CCC3=O)c2)c1`
Reply text: False

Inquiry: Outcome? `Cc1cccc(NC(=O)c2cc([N+](=O)[O-])ccc2N2CCN(C)CC2)c1`
Reply text: False

###

experiment: Primary qHTS for delayed death inhibitors of the malarial parasite plastid, 96 hour incubation; conditions: P. falciparum luciferase reporter growth; series mostly up to 28.7 µM
Screen size: about 320,000 compounds; about 22,000 (6.9%) were called active. Inconclusive results (about 27%) are left out. Calls follow the shape of the dose curve; as a rule, active = well fitted inhibition curve with a large enough effect; inconclusive = small, poorly fitted or top-dose-only effect, or another doubt; inactive = no such curve, though single readings can be large or run the other way. Only a selection was taken, and actives are over-represented in it overall.
Tick one outcome: active, inactive

Some solved entries appear below for comparison.
[[record]]
molecule = "Cc1cccc(NS(=O)(=O)c2ccc(C(=O)NCC(C)(C)N3CCOCC3)cc2)c1C"
category_label = "inactive"

[[record]]
molecule = "O=C(COC(=O)CNC(=O)C1CCCCC1)Nc1cccc(F)c1"
category_label = "inactive"


Inquiry: Outcome? `COc1ccccc1CCNC(=O)c1c(C)nn(CC(C)C)c1Cl`
Reply text: inactive

Inquiry: Outcome? Cc1cc(=O)oc2cc(OC(C)C(=O)Nc3ccc(N4CCOCC4)cc3)ccc12 (stereo not given)
Reply text: inactive

Inquiry: Outcome? `COc1ccc(/C=N/OCc2ccccc2C#N)c(OC)c1`
Reply text: inactive
